Assay: Clinical DDI study U107
Format: in vivo, human
Conditions: human, plasma, oral, 100 mg, Vz/F, 100 mg alone, 2 h following a full meal (sequence AC, treatment A); geometric mean (CV%)
Measured Metric: Vd/F (L)
Provide only the numeric value, understood in L.

Task: Any idea what its Vd/F is? The molecule is CC1(C)CCC2(CC1)N[C@@H](C(=O)N[C@@H]1CC[C@@H](C(N)=O)OC1)[C@H](c1ccnc(Cl)c1F)[C@]21C(=O)Nc2cc(Cl)ccc21 [milademetan]
Output: 223

###

Assay: Milademetan PBPK model
Parameters: species or system human
Settings: human
Measured Metric: microsomal CLint (µL/min/mg)
Provide only the numeric value, understood in µL/min/mg.

Task: Any idea what its microsomal CLint is? The molecule is CC1(C)CCC2(CC1)N[C@@H](C(=O)N[C@@H]1CC[C@@H](C(N)=O)OC1)[C@H](c1ccnc(Cl)c1F)[C@]21C(=O)Nc2cc(Cl)ccc21
Output: 40.2
